- method description: Cytotoxicity assay (MTT)
- Format: cell-based
- experimental context: human; C8166 cells, MTT, 72 h; means of two separate experiments; read-out: CC50 (50% cytotoxic concentration)
Please go through the items and note down their CC50 at 72 h.
Give the value in µM but do not write µM after it.

Entry O=C1C2C(c3cccc4c3OCO4)=NN(c3ccc(F)cc3)C2C(=O)N1CCc1ccc(F)cc1 (stereo not shown) [12b] , CC50 at 72 h reported as 222

For this compound ( COc1cccc(C2=NN(c3ccc(F)cc3)C3C(=O)N(CCc4cccc(F)c4)C(=O)C23)c1O (stereo not shown) [16b] ), measured CC50 at 72 h is 143

Recorded CC50 at 72 h (compound O=C1C2C(c3c(O)ccc4ccccc34)=NN(c3ccc(F)cc3)C2C(=O)N1CCc1ccc(F)cc1 (stereo not shown) ): 9.03

response.value for COc1ccc(CCN2C(=O)C3C(c4cccc(OC)c4O)=NN(c4ccc(F)cc4)C3C2=O)cc1 (stereo not shown) [16e] (field: CC50 at 72 h) = 219

Just so you know, measured CC50 at 72 h for COc1ccc(C2=NN(c3ccc(F)cc3)C3C(=O)N(CCc4ccc(F)cc4)C(=O)C23)c(O)c1 (stereo not shown) [10a] came out at 21.4

Documented CC50 at 72 h of O=C1C2C(c3ccccn3)=NN(c3ccc(F)cc3)C2C(=O)N1CCc1ccc(F)cc1 (stereo not shown) [14b] : 150

Input COc1cc([N+](=O)[O-])cc(C2=NN(c3ccc(F)cc3)C3C(=O)N(CCc4ccc(F)cc4)C(=O)C23)c1O (stereo not shown) . Output CC50 at 72 h: 90.3

For O=C1C2C(c3cc(F)ccc3O)=NN(c3ccc(F)cc3)C2C(=O)N1CCc1ccc(F)cc1 (stereo not shown) the compound record lists CC50 at 72 h as 159

Value of measured CC50 at 72 h for the entry COc1cccc(C2=NN(c3ccc(Cl)cc3)C3C(=O)N(CCc4ccc(F)cc4)C(=O)C23)c1O (stereo not shown) [15c] : 166

---

Could you please report measured CC50 at 72 h for the items listed next?
- method description: Cytotoxicity assay (MTT)
- Assay type: cell-based
- experimental context: human; C8166 cells, MTT, 72 h; means of two separate experiments; read-out: CC50 (50% cytotoxic concentration)
Output spec: scalar in µM, unitless text.

The recorded CC50 at 72 h for entry COc1cccc(C2=NN(c3cccc(F)c3)C3C(=O)N(CCc4ccc(F)cc4)C(=O)C23)c1O (centres unmarked) [15a] equals 129

Record COc1cccc(C2=NN(c3ccc(F)cc3)C3C(=O)N(CCc4ccccc4F)C(=O)C23)c1O (centres unmarked) [16a] . Reported CC50 at 72 h: 19.6

Please fill in: CC50 at 72 h reported for COc1cccc(C2=NN(c3ccc(F)cc3)C3C(=O)N(CCc4ccc(Cl)cc4)C(=O)C23)c1O (centres unmarked) [16c] = 70.1

Sample O=C1C2C(c3nccs3)=NN(c3ccc(F)cc3)C2C(=O)N1CCc1ccc(F)cc1 (centres unmarked) [14a] ; CC50 at 72 h observed: 158

In plain terms, O=C1C2C(c3cccc(Cl)c3O)=NN(c3ccc(F)cc3)C2C(=O)N1CCc1ccc(F)cc1 (centres unmarked) [9d] has a documented CC50 at 72 h of 332

O=C1C2C(c3ccc(O)cc3O)=NN(c3ccc(F)cc3)C2C(=O)N1CCc1ccc(F)cc1 (centres unmarked) [9a] has a reported CC50 at 72 h of 173

Item: Cc1cccc(C2=NN(c3ccc(F)cc3)C3C(=O)N(CCc4ccc(F)cc4)C(=O)C23)c1O (centres unmarked) [9f] | CC50 at 72 h: 151

For record O=C1C2C(c3ccccc3)=NN(c3ccc(F)cc3)C2C(=O)N1CCc1ccc(F)cc1 (centres unmarked) [7b] the listed CC50 at 72 h is 148

# CC50 at 72 h of O=C1C2C(c3cccc([N+](=O)[O-])c3O)=NN(c3ccc(F)cc3)C2C(=O)N1CCc1ccc(F)cc1 (centres unmarked) [9e] = 49.5

---

Give measured CC50 at 72 h for each item. Keep answers brief.
- method description: Cytotoxicity assay (MTT)
- Type: cell-based
- experimental context: human; C8166 cells, MTT, 72 h; means of two separate experiments; read-out: CC50 (50% cytotoxic concentration)

The compound listed as COc1c(O)cccc1C1=NN(c2ccc(F)cc2)C2C(=O)N(CCc3ccc(F)cc3)C(=O)C12 (stereo not shown) [7a] has a reported CC50 at 72 h of 39.1 µM

CC50 at 72 h reported for this compound O=C1C2C(c3cccc(O)c3O)=NN(c3ccc(F)cc3)C2C(=O)N1CCc1ccc(F)cc1 (stereo not shown) [compound 6] : > 432 µM

Data point: O=C1C2C(c3cccc(F)c3O)=NN(c3ccc(F)cc3)C2C(=O)N1CCc1ccc(F)cc1 (stereo not shown) [9b] ; CC50 at 72 h = 141 µM

The reported CC50 at 72 h of the compound COc1cccc(C2=NN(c3ccc(S(N)(=O)=O)cc3)C3C(=O)N(CCc4ccc(F)cc4)C(=O)C23)c1O (stereo not shown) [15g] was 46 µM

---

- System: HIV-1IIIB
- method description: Syncytia inhibition assay (HIV-1IIIB infected C8166 cells)
- Format: cell-based
- experimental context: CC50 in C8166 cells / EC50 syncytia inhibition
Task for the reader: assign each of the following compounds its reported TI (in vitro therapeutic index, CC50 value/EC50 value).
Please give the numeric answer without any surrounding text.

Record O=C1C2C(c3nccs3)=NN(c3ccc(F)cc3)C2C(=O)N1CCc1ccc(F)cc1 (stereo not shown) [14a] . Reported TI (in vitro therapeutic index, CC50 value/EC50 value): 4.46

Entry COc1cccc(C2=NN(c3cccc(F)c3)C3C(=O)N(CCc4ccc(F)cc4)C(=O)C23)c1O (stereo not shown) [15a] — recorded TI (in vitro therapeutic index, CC50 value/EC50 value) = 10.67

Form: compound = O=C1C2C(c3cccc(F)c3O)=NN(c3ccc(F)cc3)C2C(=O)N1CCc1ccc(F)cc1 (stereo not shown) ; TI (in vitro therapeutic index, CC50 value/EC50 value) = 24.58

O=C1C2C(c3ccccn3)=NN(c3ccc(F)cc3)C2C(=O)N1CCc1ccc(F)cc1 (stereo not shown) [14b] yielded TI (in vitro therapeutic index, CC50 value/EC50 value) of 5.73

Reported TI (in vitro therapeutic index, CC50 value/EC50 value) for COc1cccc(C2=NN(c3ccc(F)cc3)C3C(=O)N(CCc4ccc(Cl)cc4)C(=O)C23)c1O (stereo not shown) [16c] was 6.73

---

Give measured TI (in vitro therapeutic index, CC50 value/EC50 value) for each item. Keep answers brief.
- Tested on: HIV-1IIIB
- method description: Syncytia inhibition assay (HIV-1IIIB infected C8166 cells)
- Assay type: cell-based
- experimental context: CC50 in C8166 cells / EC50 syncytia inhibition
Number only, no unit.

Form field, TI (in vitro therapeutic index, CC50 value/EC50 value) with HIV-1IIIB, item O=C1C2C(c3ccc(O)cc3O)=NN(c3ccc(F)cc3)C2C(=O)N1CCc1ccc(F)cc1 (stereo not shown) [9a] : 4.91

TI (in vitro therapeutic index, CC50 value/EC50 value) for HIV-1IIIB with input COc1cccc(C2=NN(c3ccc(F)cc3)C3C(=O)N(CCc4ccccc4F)C(=O)C23)c1O (stereo not shown) [16a] equals 7.78

---

- method description: Cytotoxicity assay (MTT)
- Type: cell-based
- experimental context: human; C8166 cells, MTT, 72 h; means of two separate experiments; read-out: CC50 (50% cytotoxic concentration)
experimental readout: CC50 at 72 h

The recorded CC50 at 72 h for entry COc1cccc(C2=NN(c3ccccc3)C3C(=O)N(CCc4ccc(F)cc4)C(=O)C23)c1O (stereo not shown) [15h] equals > 436 µM

get_value(item= COc1cccc(C2=NN(c3ccccc3F)C3C(=O)N(CCc4ccc(F)cc4)C(=O)C23)c1O (stereo not shown) [15b] , readout=CC50 at 72 h) returns > 419 µM

So for COc1cccc(C2=NN(c3ccc(F)cc3)C3C(=O)N(CCc4ccc(F)cc4)C(=O)C23)c1OC (stereo not shown) [12a] , the logged CC50 at 72 h turned out to be > 407 µM

CC50 at 72 h reading for COc1cccc(C2=NN(c3ccc(C(F)(F)F)cc3)C3C(=O)N(CCc4ccc(F)cc4)C(=O)C23)c1O (stereo not shown) [15e] : > 379 µM

---

- method description: Cytotoxicity assay (MTT)
- Assay type: cell-based
- experimental context: human; C8166 cells, MTT, 72 h; means of two separate experiments; read-out: CC50 (50% cytotoxic concentration)
experimental readout: CC50 at 72 h

What the record says about CCOc1cccc(C2=NN(c3ccc(F)cc3)C3C(=O)N(CCc4ccc(F)cc4)C(=O)C23)c1O (centres unmarked) [10c] : CC50 at 72 h is > 407 µM

Lookup result for COc1cccc(C2=NN(c3ccc(F)cc3)C3C(=O)N(CCc4ccc(F)cc4)C(=O)C23)c1O (centres unmarked) ; measured CC50 at 72 h: > 419 µM

Measured CC50 at 72 h, COc1cccc(C2=NN(c3ccc(C)cc3)C3C(=O)N(CCc4ccc(F)cc4)C(=O)C23)c1O (centres unmarked) [15i] : > 423 µM

Looking up COc1cccc(C2=NN(c3ccc(S(C)(=O)=O)cc3)C3C(=O)N(CCc4ccc(F)cc4)C(=O)C23)c1O (centres unmarked) [15f] , I see its CC50 at 72 h listed as > 372 µM

Kindly note the recorded CC50 at 72 h for COc1cccc(C2=NN(c3ccc(F)cc3)C3C(=O)N(CCc4ccccc4)C(=O)C23)c1O (centres unmarked) [16d] , which is > 436 µM

# CC50 at 72 h of COc1cccc(C2=NN(c3ccc(F)cc3F)C3C(=O)N(CCc4ccc(F)cc4)C(=O)C23)c1O (centres unmarked) [15d] = > 404 µM

Item: COc1ccc(N2N=C(c3cccc(OC)c3O)C3C(=O)N(CCc4ccc(F)cc4)C(=O)C32)cc1 (centres unmarked) [15j] | CC50 at 72 h: > 409 µM

Looking up O=C1C2C(c3ccccc3O)=NN(c3ccc(F)cc3)C2C(=O)N1CCc1ccc(F)cc1 (centres unmarked) , I found its CC50 at 72 h recorded as > 447 µM
